EXPERIMENTAL SYSTEM: DNA topoisomerase 2-alpha (Homo sapiens, UniProt P11388)
Sequence (P11388 whole entry): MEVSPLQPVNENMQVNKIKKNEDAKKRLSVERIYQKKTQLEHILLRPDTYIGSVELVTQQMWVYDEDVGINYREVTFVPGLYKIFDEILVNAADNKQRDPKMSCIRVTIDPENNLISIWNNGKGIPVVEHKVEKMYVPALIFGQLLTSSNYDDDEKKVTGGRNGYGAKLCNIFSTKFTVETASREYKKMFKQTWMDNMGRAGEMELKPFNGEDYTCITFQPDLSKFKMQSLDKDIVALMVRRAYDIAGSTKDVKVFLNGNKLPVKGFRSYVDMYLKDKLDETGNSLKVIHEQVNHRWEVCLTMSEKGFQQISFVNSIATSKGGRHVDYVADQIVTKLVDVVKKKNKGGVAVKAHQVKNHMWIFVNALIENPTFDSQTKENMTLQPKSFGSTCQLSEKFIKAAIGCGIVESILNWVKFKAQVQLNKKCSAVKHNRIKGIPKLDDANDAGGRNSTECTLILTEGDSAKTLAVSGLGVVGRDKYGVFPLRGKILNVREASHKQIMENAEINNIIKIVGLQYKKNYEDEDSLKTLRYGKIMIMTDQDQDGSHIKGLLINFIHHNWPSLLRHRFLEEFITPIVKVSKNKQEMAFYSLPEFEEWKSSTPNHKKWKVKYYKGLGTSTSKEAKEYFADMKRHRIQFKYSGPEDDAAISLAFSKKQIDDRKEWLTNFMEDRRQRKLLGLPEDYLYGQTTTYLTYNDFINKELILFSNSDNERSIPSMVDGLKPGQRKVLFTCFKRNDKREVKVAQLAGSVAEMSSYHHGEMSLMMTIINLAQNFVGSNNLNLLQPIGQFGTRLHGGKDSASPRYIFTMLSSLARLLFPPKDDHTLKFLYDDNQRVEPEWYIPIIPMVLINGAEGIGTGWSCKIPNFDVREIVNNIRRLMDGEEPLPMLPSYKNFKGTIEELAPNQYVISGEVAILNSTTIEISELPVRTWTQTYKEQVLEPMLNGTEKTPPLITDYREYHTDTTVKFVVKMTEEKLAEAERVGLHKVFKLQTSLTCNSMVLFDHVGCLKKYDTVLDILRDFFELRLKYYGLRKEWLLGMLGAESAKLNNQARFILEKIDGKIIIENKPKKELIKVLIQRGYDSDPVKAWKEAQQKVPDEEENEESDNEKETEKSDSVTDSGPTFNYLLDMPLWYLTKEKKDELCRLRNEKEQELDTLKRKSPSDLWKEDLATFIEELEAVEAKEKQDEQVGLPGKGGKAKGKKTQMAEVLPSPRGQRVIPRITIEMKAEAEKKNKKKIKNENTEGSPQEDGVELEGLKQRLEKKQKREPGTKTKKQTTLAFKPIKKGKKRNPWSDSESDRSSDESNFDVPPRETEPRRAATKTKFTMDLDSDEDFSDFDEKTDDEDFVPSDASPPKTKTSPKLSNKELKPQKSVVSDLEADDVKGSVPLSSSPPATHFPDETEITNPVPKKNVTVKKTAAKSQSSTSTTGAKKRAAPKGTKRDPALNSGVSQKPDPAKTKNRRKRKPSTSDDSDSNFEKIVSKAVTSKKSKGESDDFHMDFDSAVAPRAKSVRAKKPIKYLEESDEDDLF
TEST METHOD NOTES: Inhibition of human DNA topoisomerase IIalpha assessed as decatenation of kDNA at 3.9 uM after 90 mins by ethidium bromide staining
Design: scale not given: the % may be the effect or the level left
ATTRIBUTE MEASURED: Activity (%)

| COMPOUND | EXPERIMENTAL SYSTEM | Activity [%] |
| --- | --- | --- |
| COc1cc([C@@H]2c3cc4c(cc3[C@@H](O[C@@H]3O[C@@H]5CO[C@@H](C)O[C@H]5[C@H](O)[C@H]3O)[C@H]3COC(=O)[C@H]23)OCO4)cc(OC)c1O | DNA topoisomerase 2-alpha (Homo sapiens, UniProt P11388) | 88.3 |
| O=c1nc(SCc2ccccc2)nc(SCc2ccccc2F)[nH]1 | DNA topoisomerase 2-alpha (Homo sapiens, UniProt P11388) | 91.5 |
| O=c1nc(SCc2ccccc2)nc(SCc2cccc(Cl)c2)[nH]1 | DNA topoisomerase 2-alpha (Homo sapiens, UniProt P11388) | 87.3 |
| CC(C(C)N1CC(=O)NC(=O)C1)N1CC(=O)NC(=O)C1 (centres undefined) | DNA topoisomerase 2-alpha (Homo sapiens, UniProt P11388) | 77.4 |
